Exercise: state measured apparent KD of K4 kissing-loop reporter for each of the sequences provided.
System: K4 kissing-loop RNA reporter;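 also: bound reporter read as fluorescence of individual clusters on recovered sequencing chips by microscopy, with normalized cluster intensities fitted with a binding model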
Assay: apparent KD of K4 kissing-loop reporter; higher = weaker reporter binding
Details: Eterna round: R107; input ligand: arginine 13.2 mM
# unit: nM | format: bare number

## Input # return recorded apparent KD of K4 kissing-loop reporter for entry AAUUUAUUAACUGAUACCAGACUUAAUAAAUUGUAAAUUACUAGUGAUGUUAGUGAAUUUGUCCCUUGGCAGCAGUAUUUAUUAA [JR_ExcTheophyB_Sub009]
## Output 133

## Input Kindly indicate its recorded apparent KD of K4 kissing-loop reporter. Item: CCUAUCUCAUACGAUACCAGUCAAUGAUCUUUGAUCAAUGCCAUCACCGAGUGAUGUUCGGACCCUUGGCAGCGUAUGGGAUAGG [whbob_Ex_Theo_B_sa102]
## Output 212

## Input Report measured apparent KD of K4 kissing-loop reporter; entry is UUGGUCUUUUAAGGAUAUCAUACUCCACUGAGCGAGUGAUGUUCGCUCCUGUUACGCCUGGGACCGUGAGAAGGUAAAGUACCGU [theeternabot_sameState_KL_FMN_B_5]
## Output 138

## Input Specify measured apparent KD of K4 kissing-loop reporter for GGUUCUCUGUUAGGAUAUAGAUUAGAGUGAUGUUCUAACGGCCCGGGCCCGAAAGGGCCCGGGCCGCUAGAAGGAACGGAGUUGG [#2 Same State - FMN A Attempt #1 (HarryS)] .
## Output 149

## Input Return value of apparent KD of K4 kissing-loop reporter for input UAUAUAGUGACGGCCGCCACUAUAGUGAUGUUAUUGUUAGAGUGAUGUUUUGUUGUUUAAUUUUGUAGGACCGGGUUAUAUGUUA [tbbtmullin] , no commentary.
## Output 418

## Input Give reported apparent KD of K4 kissing-loop reporter value for UGUCAUUGGUCGGCCGCCACUCCAUAAAGAGUGAUGUUCUAAAAGACGGAUCGAAAGAUCUGUCGGAGGACCGGGACCGAUGACU [FiskerMod 4 - Jieux - Same State - Tryptophan B]
## Output 555

## Input Entry UGGAUAUAGUGAUGUUAUAUAGAGAUGGAUACCAGCGAAGAGAAUUGCCCUUGGCAGCCGAAAGAAGUAUCAUUAGAGAAGAAUG [ExTheophyl.Ah] needs its apparent KD of K4 kissing-loop reporter filled in; supply it.
## Output 213
